Origin of the recorded values: patent US20250032476A1

- Assay Target: human α2BAR (Homo sapiens (Human), UniProt P18089)
- Sequence (P18089 whole entry): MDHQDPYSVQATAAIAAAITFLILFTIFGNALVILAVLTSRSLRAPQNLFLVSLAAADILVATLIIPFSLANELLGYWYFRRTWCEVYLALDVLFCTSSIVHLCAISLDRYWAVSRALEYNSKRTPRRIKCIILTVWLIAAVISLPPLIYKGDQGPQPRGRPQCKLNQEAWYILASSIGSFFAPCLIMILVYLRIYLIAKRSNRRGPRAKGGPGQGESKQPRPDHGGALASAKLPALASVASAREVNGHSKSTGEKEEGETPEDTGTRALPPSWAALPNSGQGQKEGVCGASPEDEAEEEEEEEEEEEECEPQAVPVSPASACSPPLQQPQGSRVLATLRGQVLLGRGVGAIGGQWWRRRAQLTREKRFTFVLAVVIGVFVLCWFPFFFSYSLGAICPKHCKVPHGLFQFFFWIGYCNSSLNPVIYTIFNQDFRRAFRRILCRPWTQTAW
Measured Metric: Kd (nM)

1. COC1(C2=NCCN2)COc2ccccc2O1 (stereo not shown) [[^3H]RX82,1002]; 2.3

---

- Assay Target: ALPHA-2A ADRENERGIC RECEPTOR (Homo sapiens (Human))
- Sequence (P08913 whole entry): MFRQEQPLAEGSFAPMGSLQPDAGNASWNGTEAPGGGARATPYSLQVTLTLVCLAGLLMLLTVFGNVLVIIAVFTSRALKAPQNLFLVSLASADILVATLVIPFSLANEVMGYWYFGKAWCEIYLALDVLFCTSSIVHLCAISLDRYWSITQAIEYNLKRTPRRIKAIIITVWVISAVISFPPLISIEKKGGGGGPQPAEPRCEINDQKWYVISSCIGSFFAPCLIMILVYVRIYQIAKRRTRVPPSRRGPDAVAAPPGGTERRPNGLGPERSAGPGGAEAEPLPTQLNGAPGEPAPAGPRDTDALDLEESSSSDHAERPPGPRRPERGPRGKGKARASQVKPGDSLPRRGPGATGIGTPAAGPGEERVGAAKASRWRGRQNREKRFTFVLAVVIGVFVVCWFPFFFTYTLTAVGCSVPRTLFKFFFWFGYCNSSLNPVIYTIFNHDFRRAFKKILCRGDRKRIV
- Method: Gi recruitment (G protein)
- Type: cell-based
- Measurement Conditions: Gi recruitment, Table 6, result in words
Structures can show the parent of a compound that is named as a salt.
Measured Metric: functional classification (agonist / weak agonist)

1) O=C1CCc2c(cccc2Nc2ccncc2)N1; agonist
2) CN1C(=O)CCc2c(Nc3ccncc3)cccc21; agonist
3) O=C1NCCc2c(Nc3ccncc3)cccc21; agonist
4) Cc1cc2c(Nc3ccncc3)cccc2cn1; agonist
5) Oc1ccc2c(Nc3ccncc3)cccc2c1; agonist
6) Fc1ccc2cncc(Nc3ccncc3)c2c1; agonist
7) Fc1cccc2c(Nc3ccncc3)cncc12; agonist
8) CN1CCc2c(Nc3ccncc3)cccc2C1=O; agonist
9) COc1ccc2cccc(Nc3ccncc3)c2c1; agonist
10) Clc1ncc2ccccc2c1Nc1ccncc1; agonist
11) Clc1ccc2cccc(Nc3ccncc3)c2c1 [PS75, TFA]; agonist
12) COc1cccc2c(Nc3ccncc3)cncc12; agonist
13) Fc1cccc2c(Nc3ccncc3)cccc12; agonist

---

// reported pKi for each item listed
- Assay Target: UniProt:P08913
- Method: Radioligand competition binding to human α2AAR (HEK293T membranes, [3H]RX82,1002)
- Measurement Conditions: human α2AAR; mean ± SEM (Table 3); read-out: Ki
pKi: −log10 of the molar value.
Measured Metric: pKi

1) Fc1cccc2c(Nc3ccncc3)cccc12 [Compound 7075]; 7.43
2) c1ccc2c(Nc3ccncc3)ncnc2c1; 5.18
3) Nc1ccc(Nc2cncc3ccccc23)cc1; 5.34
4) Clc1ncc2ccccc2c1Nc1ccncc1 [Compound 1718]; 7.66

---

// reported AUC for each item listed
- Method: Pharmacokinetics in mice (plasma, brain, CSF)
- Type: in vivo
- Measurement Conditions: mouse, plasma, ip, I.P. 10 mg/kg
Structures can show the parent of a compound that is named as a salt.
Measured Metric: AUC (ng·h/mL)

1. Clc1ccc2cccc(Nc3ccncc3)c2c1 [PS75, TFA]; 927
2. c1ccc2c(Nc3ccncc3)cncc2c1; 1830
3. C1=C(c2ccc3c(c2)CC3)CNCC1; 567
4. Cc1cc2[nH]ncc2cc1-c1ccc(N)nc1; 3070
5. Fc1cccc2c(Nc3ccncc3)cccc12; 952

---

- Method: Pharmacokinetics in mice (plasma, brain, CSF)
- Type: in vivo
- Measurement Conditions: I.P. 10 mg/kg
- Procedure: Pharmacokinetics. Pharmacokinetic experiments were performed by Bienta (Enamine Biology Services) in accordance with Enamine pharmacokinetic study protocols and Institutional Animal Care and Use Guidelines (protocol number 1-2/2020). […] Plasma samples (40 μL) were mixed with 200 μL of internal standard (IS) solution. […] Solutions of internal standards were used to quantify compounds in the plasma samples. […]
Structures can show the parent of a compound that is named as a salt.
// reported AUC Brain for each item listed
Measured Metric: AUC Brain (ng·min/mL)

1. C1=C(c2ccc3c(c2)CC3)CNCC1; 1160000
2. Fc1cccc2c(Nc3ccncc3)cccc12; 814000
3. Clc1ccc2cccc(Nc3ccncc3)c2c1 [PS75, TFA]; 888000
4. Cc1cc2[nH]ncc2cc1-c1ccc(N)nc1; 51700
5. c1ccc2c(Nc3ccncc3)cncc2c1; 439000

---

- Assay Target: UniProt P08913
- Method: Arrestin recruitment
- Format: cell-based
- Measurement Conditions: Tables 7-9
// reported Emax for each item listed
Measured Metric: Emax

1. O=C1CCc2cc(C3=CCCNC3)ccc21 [TP90]; < 5%
2. C=C1CCc2cc(C3=CCCNC3)ccc21 [TP105]; < 5%
3. Nc1ccnc(Cc2ccc(F)cc2)c1 [TP94, 2-(4-Fluorobenzyl)pyridin-4-amine]; < 10%
4. C=C(c1ccc(C(F)(F)F)cc1)c1cc(N)ccn1 [TP101]; < 5%
5. CC1=CCc2cc(C3=CCCNC3)ccc21 [TP97]; < 5%
6. Nc1ccc(-c2ccc3[nH]ncc3c2F)cn1 [TP84]; < 10%

---

- Assay Target: ALPHA-2A ADRENERGIC RECEPTOR (Homo sapiens (Human))
- Method: Gi recruitment (G protein)
- Type: cell-based
- Measurement Conditions: Gi recruitment, Tables 7-9; read-out: G protein EC50
// reported EC50 for each item listed
Measured Metric: EC50 (nM)

1) CN(c1ccc(N)c(F)c1)c1ccccn1 [Compound 6254]; 5400
2) Cc1cc(-c2ccc3[nH]ncc3c2C)cnc1N [Compound 5649]; 1000
3) Nc1ccc(-c2cc3cn[nH]c3cc2[N+](=O)[O-])cn1 [TP78]; 910
4) Nc1ccc(-c2cc(Cl)c3[nH]ncc3c2)cn1 [TP73]; 8700
5) Cc1ccc(Nc2ccccn2)cc1C [Compound 4472, N-(3,4-Dimethylphenyl)pyridin-2-amine]; 3300
6) N#Cc1cc2[nH]ncc2cc1-c1ccc(N)nc1 [BSC2998-E02]; 2900
7) Nc1ncccc1-c1ccc2[nH]ncc2c1 [Compound 9241, 3-(1H-Indazol-5-yl)pyridin-2-amine]; 2100
8) Nc1ccnc(Cc2ccc(F)cc2)c1 [TP94, 2-(4-Fluorobenzyl)pyridin-4-amine]; 5000
9) CN(c1cccc(O)c1)c1cc(N)ccn1 [Compound 9448]; 2900
10) CN(c1cccc(Cl)c1)c1cc(N)ccn1 [Compound 2029]; 1400
11) Cc1cccc(N(C)c2ccc(N)nc2)c1 [Compound 9878]; 1100
12) C1=C(c2ccc3c(c2)CCO3)CNCC1 [Compound 9700]; 800
13) C1=C(c2cccc3ccccc23)CNCC1 [Compound 3461]; 450
14) O=C1CCc2ccc(C3=CCCNC3)cc21 [TP81]; 3000
15) Cc1c(-c2cccnc2N)ccc2[nH]ncc12 [Compound 5193]; 3100
16) Nc1ccnc(Oc2ccc(F)cc2)c1 [Compound 4783, 2-(4-Fluorophenoxy)pyridin-4-amine]; 580
17) Cc1cc2[nH]ncc2cc1-c1ccc(N)nc1 [Compound 2998]; 89
